# Test system: PTTS
# Protocol: Effects of metal ions and reagents on PTTS activity
# Format: biochemical, Picrophilus torridus
# Cond: 1 mM metal ion or reagent, standard assay conditions
Observable: inhibition of enzyme activity

Reference set (4 entries):
> print(dat)
         compound  measured.target                     observable            measured
1  [Al+3] [Al^3+]             PTTS  inhibition of enzyme activity  inhibited strongly
2  [Pb+2] [Pb^2+]             PTTS  inhibition of enzyme activity          moderately
3  [Cu+2] [Cu^2+]             PTTS  inhibition of enzyme activity          moderately
4  [Hg+2] [Hg^2+]             PTTS  inhibition of enzyme activity  inhibited strongly

Look up and state reported inhibition of enzyme activity for [Cd+2] [Cd^2+]
moderately

Identify measured inhibition of enzyme activity associated with NC(CO)(CO)CO [Tris]
moderately

# return recorded inhibition of enzyme activity for input [Ag+] [Ag^+]
inhibited strongly

Could you please provide reported inhibition of enzyme activity for CCCCCCCCCCCCOS(=O)(=O)[O-].[Na+] [SDS] ? Thanks!
inhibited strongly
